Compiled notes: published pKi values involving Glucocorticoid receptor (Homo sapiens).
# pKi is unitless: minus log10 of the molar concentration; print number only

Query string: Lab note: need pKi with Glucocorticoid receptor (Homo sapiens) for entry CC(C)(CNS(C)(=O)=O)[C@@H](c1ccccc1)c1ccc2c(cnn2-c2ccc(F)cc2)c1 , please look it up.
Result string: 9.28

Query string: # returns recorded pKi (system: Glucocorticoid receptor (Homo sapiens)) for CC(C)(C(=O)NC(=O)C1CCC1)[C@@H]1c2ccc(-c3ccc(C(=O)N4CCOCC4)cc3)nc2Oc2c(F)cccc21
Result string: 8.06

Query string: Give recorded pKi with Glucocorticoid receptor (Homo sapiens) for the following molecule: CNC(=O)C[C@H]1COc2cc(Br)ccc2N1C(=O)c1ccc2c(c1)NC(=O)CO2
Result string: 6.90

Query string: Given the entry CC(C)NC(=O)O[C@@H]1[C@@H](C)c2c(cc(F)c(-c3cccc4c(Cl)c[nH]c34)c2F)NC1(C)C (racemic) , what pKi was observed with Glucocorticoid receptor (Homo sapiens)?
Result string: 8.11

Query string: Give pKi (Glucocorticoid receptor (Homo sapiens)) of the following molecule: C[C@]12Cn3cnc(-c4ccc(F)cc4)c3C=C1CCC[C@@H]2[C@](C)(O)c1ccc(F)cc1
Result string: 8.70

###

Below: molecules with pKi recorded for Glucocorticoid receptor (Homo sapiens, UniProt P04150) in separate published works.
pKi here: minus log base 10 of the concentration, concentration in moles per litre.

[
  {
    "MOLECULE": "CCCS(=O)(=O)NCC(C)(C)[C@@H](c1ccccc1)c1ccc2c(cnn2-c2ccc(F)cc2)c1",
    "RECORDED VALUE": 8.82
  },
  {
    "MOLECULE": "CO/N=C1/c2c(cc(F)c(-c3cccc4c(C)c[nH]c34)c2F)NC(C)(C)C1O (racemic)",
    "RECORDED VALUE": 8.42
  }
]

Query string: I would be grateful if you could share the reported pKi for CC(C)(C(=O)Nc1nncs1)[C@@H](c1ccccc1)c1ccc(O)c(Br)c1 .
Result string: 9.40

Query string: State the recorded pKi for this entry: CO[C@](C)(c1cccs1)[C@H]1CCCC2=Cc3c(-c4ccc(F)cc4)ncn3C[C@@]21C
Result string: 7.48

Query string: # lookup: pKi of Cc1c(Cl)c(-c2cccc3cc[nH]c23)cc2c1NC(C)(C)[C@H](O)[C@H]2C (racemic)
Result string: 8.74

Query string: Please give the measured pKi for this molecule: CC(C)(C(=O)Nc1nncs1)C(c1ccccc1)c1ccn2c(-c3ccccc3)ncc2c1 (stereo unspecified)
Result string: 8.52

Query string: Quick one: pKi of CC(C)CCn1ncc2cc(C(c3ccccc3)C(C)(C)C(=O)Nc3nncs3)ccc21 (racemic) ?
Result string: 8.24

Query string: Sample CC(C)(C(=O)Nc1nncs1)[C@@H]1c2ccc(-c3ccc(C(=O)N4CCOCC4)cc3)nc2Oc2c(F)cccc21 — what was its pKi?
Result string: 8.80

###

- SYSTEM TESTED: Glucocorticoid receptor (Homo sapiens)
- Sequence (P04150 whole entry): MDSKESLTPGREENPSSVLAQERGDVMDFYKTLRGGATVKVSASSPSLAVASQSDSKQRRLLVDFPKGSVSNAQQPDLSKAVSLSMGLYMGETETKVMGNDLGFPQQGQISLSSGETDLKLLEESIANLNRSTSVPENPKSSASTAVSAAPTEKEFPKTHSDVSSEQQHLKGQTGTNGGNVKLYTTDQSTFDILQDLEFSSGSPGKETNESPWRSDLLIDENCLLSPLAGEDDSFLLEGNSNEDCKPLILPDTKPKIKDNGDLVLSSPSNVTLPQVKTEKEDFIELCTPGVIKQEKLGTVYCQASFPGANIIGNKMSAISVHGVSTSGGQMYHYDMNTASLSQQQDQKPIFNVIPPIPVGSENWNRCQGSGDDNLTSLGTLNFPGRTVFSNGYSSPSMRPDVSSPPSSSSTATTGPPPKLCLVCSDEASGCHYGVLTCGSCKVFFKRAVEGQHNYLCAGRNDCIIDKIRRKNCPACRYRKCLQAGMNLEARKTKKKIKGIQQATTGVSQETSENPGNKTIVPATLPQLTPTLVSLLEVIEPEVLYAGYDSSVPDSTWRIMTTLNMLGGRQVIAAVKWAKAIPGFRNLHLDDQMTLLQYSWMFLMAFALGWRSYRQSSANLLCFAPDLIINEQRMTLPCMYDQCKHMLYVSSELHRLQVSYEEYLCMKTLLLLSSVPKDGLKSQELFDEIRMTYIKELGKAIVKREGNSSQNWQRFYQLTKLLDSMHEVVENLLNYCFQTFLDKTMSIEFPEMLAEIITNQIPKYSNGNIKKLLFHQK
pKi: −log10 of the molar value.
A compilation of pKi values for Glucocorticoid receptor (Homo sapiens) from the published literature.

Record excerpt, results attached:
[
  {
    "SAMPLE SMILES": "Cn1cc(-c2ccc(C#N)cc2)c2ccc(NS(C)(=O)=O)cc21",
    "VALUE TYPE": "pKi",
    "RECORDED VALUE": "< 5.37"
  },
  {
    "SAMPLE SMILES": "NC(=O)C[C@H]1COCc2cc(F)ccc2N1C(=O)c1ccc2c(c1)NC(=O)CO2",
    "VALUE TYPE": "pKi",
    "RECORDED VALUE": "< 4.80"
  },
  {
    "SAMPLE SMILES": "CS(=O)(=O)Nc1ccccc1C=C1c2ccccc2CCc2ccccc21",
    "VALUE TYPE": "pKi",
    "RECORDED VALUE": "< 7.00"
  },
  {
    "SAMPLE SMILES": "CNC(=O)C[C@H]1COc2cc(F)ccc2N1C(=O)c1ccc2c(c1)NC(=O)OC2",
    "VALUE TYPE": "pKi",
    "RECORDED VALUE": "< 4.80"
  }
]

Consider now this further compound.
Query string: Any idea what pKi was measured for CCCNC(=O)c1c(F)cccc1CC[C@]1(O)CCC2=Cc3c(cnn3-c3ccc(F)cc3)C[C@@]21C ?
Result string: > 9.00
